target: BaF3 cell lines stably transfected with kinase EGFR L858R (Homo sapiens, UniProt P00533, L858R, cells depend on it); assay: Growth inhibition of BaF3 cell line stably transfected with kinase EGFR L858R (MTS); type: cell-based; conditions: 48 h, read-out: growth inhibitory activity IC50, L858R
Sequence (P00533 whole entry L858R): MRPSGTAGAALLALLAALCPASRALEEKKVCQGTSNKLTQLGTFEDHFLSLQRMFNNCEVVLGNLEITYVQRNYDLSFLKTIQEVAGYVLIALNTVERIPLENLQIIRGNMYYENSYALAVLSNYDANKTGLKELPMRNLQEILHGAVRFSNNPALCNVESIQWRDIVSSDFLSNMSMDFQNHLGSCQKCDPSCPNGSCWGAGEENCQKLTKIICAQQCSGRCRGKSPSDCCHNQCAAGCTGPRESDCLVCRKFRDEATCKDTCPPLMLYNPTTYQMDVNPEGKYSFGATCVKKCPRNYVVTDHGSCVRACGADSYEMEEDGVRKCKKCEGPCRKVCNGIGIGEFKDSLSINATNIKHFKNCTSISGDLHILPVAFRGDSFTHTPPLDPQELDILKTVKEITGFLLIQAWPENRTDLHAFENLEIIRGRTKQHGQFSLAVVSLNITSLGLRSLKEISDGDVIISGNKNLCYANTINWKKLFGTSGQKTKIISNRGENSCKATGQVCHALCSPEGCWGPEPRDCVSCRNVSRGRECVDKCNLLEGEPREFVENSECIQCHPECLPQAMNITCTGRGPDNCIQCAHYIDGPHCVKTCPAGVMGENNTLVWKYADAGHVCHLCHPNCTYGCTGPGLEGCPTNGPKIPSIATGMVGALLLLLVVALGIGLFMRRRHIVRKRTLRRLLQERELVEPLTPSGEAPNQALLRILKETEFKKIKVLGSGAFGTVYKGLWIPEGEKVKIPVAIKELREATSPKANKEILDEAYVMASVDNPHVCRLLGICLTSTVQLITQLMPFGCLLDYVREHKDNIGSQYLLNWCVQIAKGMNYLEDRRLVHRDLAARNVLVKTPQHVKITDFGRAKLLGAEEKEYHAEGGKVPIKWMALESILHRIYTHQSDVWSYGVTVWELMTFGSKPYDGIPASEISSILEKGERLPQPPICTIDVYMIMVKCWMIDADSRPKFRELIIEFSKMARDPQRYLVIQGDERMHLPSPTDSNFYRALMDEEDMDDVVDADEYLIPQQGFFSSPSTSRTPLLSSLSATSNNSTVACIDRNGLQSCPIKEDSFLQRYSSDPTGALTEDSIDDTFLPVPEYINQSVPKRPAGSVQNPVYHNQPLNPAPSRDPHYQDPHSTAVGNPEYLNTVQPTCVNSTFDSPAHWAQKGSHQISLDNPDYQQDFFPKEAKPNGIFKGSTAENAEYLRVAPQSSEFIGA

COMPOUND	GI50
C=Cc1cnc(Nc2cc(C(C)C)c(N3CCC(N4CCN(C)CC4)CC3)cc2OC)nc1Nc1ccc2nccnc2c1N(C)S(C)(=O)=O [II-17]	0.5 to 2.5 µM
C=Cc1cnc(Nc2cc(CC)c(N3CCC(N4CCN(C)CC4)CC3)cc2OC(F)(F)F)nc1Nc1ccc2nccnc2c1S(=O)(=O)NC [IV-5]	0.5 to 2.5 µM
C=Cc1cnc(Nc2cc(CC3CC3)c(N3CCC(N4CCN(C)CC4)CC3)cc2OC)nc1Nc1ccc2nccnc2c1NS(C)(=O)=O [II-37]	≤ 0.05 µM
C=Cc1cnc(Nc2ccc3c(c2)C(C)CN(C)CC3)nc1Nc1ccc2nccnc2c1N(C)S(C)(=O)=O (stereo not shown) [II-78]	≤ 0.05 µM

====

Reported GI50 is given for each of the following compounds.
Target: BaF3 cell lines stably transfected with kinase EGFR Del/T790M/C797S (Homo sapiens, UniProt P00533, T790M/C797S, cells depend on it, form not given)
Sequence (P00533 with tags, fused parts or gaps DEL746-750/T790M/C797S, form open): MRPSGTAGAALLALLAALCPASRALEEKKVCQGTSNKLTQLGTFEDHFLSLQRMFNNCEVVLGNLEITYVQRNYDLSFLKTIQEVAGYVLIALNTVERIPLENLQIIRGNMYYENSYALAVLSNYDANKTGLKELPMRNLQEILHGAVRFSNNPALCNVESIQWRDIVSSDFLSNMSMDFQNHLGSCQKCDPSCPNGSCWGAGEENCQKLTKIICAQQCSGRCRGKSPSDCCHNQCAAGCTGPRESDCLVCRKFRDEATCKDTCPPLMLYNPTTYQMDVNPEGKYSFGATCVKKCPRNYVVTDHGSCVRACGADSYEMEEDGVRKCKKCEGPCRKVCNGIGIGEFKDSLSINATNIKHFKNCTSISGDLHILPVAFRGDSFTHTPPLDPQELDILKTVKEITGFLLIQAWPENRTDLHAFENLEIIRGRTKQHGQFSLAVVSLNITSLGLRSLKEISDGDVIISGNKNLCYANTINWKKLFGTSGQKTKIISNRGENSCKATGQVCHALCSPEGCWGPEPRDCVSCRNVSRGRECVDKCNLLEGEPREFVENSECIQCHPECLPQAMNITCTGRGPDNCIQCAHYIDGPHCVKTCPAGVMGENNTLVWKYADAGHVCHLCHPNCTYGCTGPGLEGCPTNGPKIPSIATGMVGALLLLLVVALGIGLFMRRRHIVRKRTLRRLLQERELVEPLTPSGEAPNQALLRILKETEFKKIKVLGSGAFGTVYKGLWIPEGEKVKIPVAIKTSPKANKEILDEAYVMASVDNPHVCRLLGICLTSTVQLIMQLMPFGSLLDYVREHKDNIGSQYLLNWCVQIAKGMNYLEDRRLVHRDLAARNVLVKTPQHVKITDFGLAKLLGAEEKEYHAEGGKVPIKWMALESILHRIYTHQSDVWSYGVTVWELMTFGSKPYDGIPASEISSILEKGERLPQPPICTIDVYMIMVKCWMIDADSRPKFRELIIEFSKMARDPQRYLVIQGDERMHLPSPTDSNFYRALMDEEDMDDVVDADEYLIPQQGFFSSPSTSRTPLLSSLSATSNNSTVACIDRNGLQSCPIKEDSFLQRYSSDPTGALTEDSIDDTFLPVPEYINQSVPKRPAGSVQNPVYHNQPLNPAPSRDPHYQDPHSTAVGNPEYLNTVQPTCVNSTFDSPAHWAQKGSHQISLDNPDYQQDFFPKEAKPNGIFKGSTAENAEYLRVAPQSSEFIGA
Assay: Growth inhibition of BaF3 cell line stably transfected with kinase EGFR Del/T790M/C797S (MTS)
Format: cell-based
Details: 48 h, read-out: growth inhibitory activity IC50, Del/T790M/C797S
Description: Biological Activity Assay: Growth Inhibitory Activity of Compounds on Cell Lines Stably Transfected with Kinase The activity of compounds against various mutants of kinase EGFR was evaluated by their effect of inhibiting growth of BaF3 cell lines stably transfected with kinase. […] 4) IC50 calculation: The semi-inhibitory concentration of the compounds acting on cells was calculated using GradPad Prism 5 software according to the measured cell growth inhibition rate.

COMPOUND	GI50
C=Cc1cnc(Nc2cccc(C3CCN(C)CC3)c2)nc1Nc1ccc2nccnc2c1P(C)(C)=O	500 to 2500 nM
CCc1cc(Nc2ncc(C3=CCCC3)c(Nc3ccc4nccnc4c3P(C)(C)=O)n2)c(OC)cc1N1CCC(N2CCN(C)CC2)CC1	50 to 500 nM
C=Cc1cnc(Nc2cc(C3CC3)c(N3CCC(N4CCN(C)CC4)CC3)cc2OC)nc1Nc1ccc2nccnc2c1S(=O)(=O)NC	50 to 500 nM
C=Cc1cnc(Nc2cn(CC)nc2C)nc1Nc1ccc2nccnc2c1N(C)S(C)(=O)=O [II-68]	50 to 500 nM

====

Reported GI50 is given for each of the following compounds.
biological target: BaF3 cell lines stably transfected with kinase EGFR L858R/T790M (Homo sapiens, UniProt P00533, T790M/L858R, cells depend on it); assay: Growth inhibition of BaF3 cell line stably transfected with kinase EGFR L858R/T790M (MTS); type: cell-based; conditions: 48 h, read-out: growth inhibitory activity IC50, L858R/T790M
Sequence (P00533 whole entry T790M/L858R): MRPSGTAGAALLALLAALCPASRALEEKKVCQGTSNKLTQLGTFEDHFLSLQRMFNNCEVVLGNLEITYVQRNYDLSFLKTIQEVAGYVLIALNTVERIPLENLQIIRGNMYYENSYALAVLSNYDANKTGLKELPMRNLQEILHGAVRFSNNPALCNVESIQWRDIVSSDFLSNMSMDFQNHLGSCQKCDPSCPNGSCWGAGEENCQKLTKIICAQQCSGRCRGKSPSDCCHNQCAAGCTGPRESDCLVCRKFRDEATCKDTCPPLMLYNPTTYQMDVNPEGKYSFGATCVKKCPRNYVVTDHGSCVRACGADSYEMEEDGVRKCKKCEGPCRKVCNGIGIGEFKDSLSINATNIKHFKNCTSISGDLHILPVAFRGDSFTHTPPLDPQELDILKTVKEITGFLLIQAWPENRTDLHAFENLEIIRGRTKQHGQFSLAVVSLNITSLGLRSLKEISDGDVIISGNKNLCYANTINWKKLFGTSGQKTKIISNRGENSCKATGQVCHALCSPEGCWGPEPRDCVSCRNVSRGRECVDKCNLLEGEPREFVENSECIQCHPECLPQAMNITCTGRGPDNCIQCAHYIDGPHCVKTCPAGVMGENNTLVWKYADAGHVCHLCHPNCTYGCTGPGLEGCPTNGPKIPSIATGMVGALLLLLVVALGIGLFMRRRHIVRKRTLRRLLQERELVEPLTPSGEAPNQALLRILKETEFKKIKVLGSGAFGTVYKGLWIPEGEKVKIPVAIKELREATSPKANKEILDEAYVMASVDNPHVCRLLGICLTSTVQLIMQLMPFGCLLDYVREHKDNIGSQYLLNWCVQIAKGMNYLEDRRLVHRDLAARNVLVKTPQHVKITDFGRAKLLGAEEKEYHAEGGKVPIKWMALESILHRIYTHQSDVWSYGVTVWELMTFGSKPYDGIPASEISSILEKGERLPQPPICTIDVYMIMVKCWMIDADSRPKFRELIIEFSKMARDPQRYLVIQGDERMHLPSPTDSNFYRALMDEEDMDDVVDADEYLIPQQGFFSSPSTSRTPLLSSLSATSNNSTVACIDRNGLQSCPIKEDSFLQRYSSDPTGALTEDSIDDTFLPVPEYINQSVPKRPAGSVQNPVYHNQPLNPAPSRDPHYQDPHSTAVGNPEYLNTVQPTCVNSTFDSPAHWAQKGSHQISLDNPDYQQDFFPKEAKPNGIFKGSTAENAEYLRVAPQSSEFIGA

SMI	GI50
C=Cc1cnc(Nc2cc(CC)c(N3CCC(N4CCN(C)CC4)CC3)nc2OC)nc1Nc1ccc2nccnc2c1S(=O)(=O)NC	50 to 500 nM
C=Cc1cnc(Nc2cc(C(C)C)c(N3CCC(N4CCN(C)CC4)CC3)cc2OC)nc1Nc1ccc2nccnc2c1N(C)S(C)(=O)=O	50 to 500 nM
C=Cc1cnc(Nc2cc3c(cc2OC(F)(F)F)CCN(C)C3)nc1Nc1ccc2nccnc2c1N(C)S(C)(=O)=O	50 to 500 nM
C=Cc1cnc(Nc2cc(CC)c(N3CCC(N4CCN(C)CC4)CC3)cc2OC(F)(F)F)nc1Nc1ccc2nccnc2c1S(=O)(=O)NC	50 to 500 nM
C=Cc1cnc(Nc2cc(CC)c(N3CCN(C)CC3)cc2OC)nc1Nc1ccc2nccnc2c1S(C)(=O)=O	50 to 500 nM
C=Cc1cnc(Nc2cc(CC)c(N3CCN(C)CC3)cc2OC)nc1Nc1ccc2nccnc2c1P(C)(C)=O	≤ 50 nM
C=Cc1cnc(Nc2ccc(N3CCC(N4CCN(C)CC4)CC3)c(CC)c2)nc1Nc1ccc2nccnc2c1NS(C)(=O)=O	≤ 50 nM
C=C(C)c1cnc(Nc2cn[nH]c2)nc1Nc1ccc2nccnc2c1N(C)S(C)(=O)=O	≤ 50 nM
CCc1cc(Nc2ncc(/C=C/c3ccccc3)c(Nc3ccc4nccnc4c3P(C)(C)=O)n2)c(OC)cc1N1CCC(N2CCN(C)CC2)CC1	500 to 2500 nM
C=Cc1cnc(Nc2ccc(N3CCC(N4CCN(C)CC4)CC3)cc2OC)nc1Nc1ccc2nccnc2c1S(=O)(=O)NC	50 to 500 nM
C=Cc1cnc(Nc2cc(CC)c(N3CCC(N(C)C)CC3)cc2OC)nc1Nc1ccc2nccnc2c1S(C)(=O)=O	50 to 500 nM
C=Cc1cnc(Nc2cc(CC3CC3)c(N3CCC(N4CCN(C)CC4)CC3)cc2OC)nc1Nc1ccc2nccnc2c1NS(C)(=O)=O	50 to 500 nM
C=C(C)c1cnc(Nc2cc(CC)c(N3CCC(N4CCN(C)CC4)CC3)cc2OC)nc1Nc1ccc2nccnc2c1P(C)(C)=O	≤ 50 nM
C=Cc1cnc(Nc2cc(CC)c(N3CCC(C4CN(C)C4)CC3)cc2OC)nc1Nc1ccc2nccnc2c1N(C)S(C)(=O)=O	50 to 500 nM

====

molecular target: BaF3 cell lines stably transfected with kinase EGFR L858R/T790M/C797S (Homo sapiens, UniProt P00533, T790M/C797S/L858R, cells depend on it); experiment: Growth inhibition of BaF3 cell line stably transfected with kinase EGFR L858R/T790M/C797S (MTS); type: cell-based; settings: 48 h, read-out: growth inhibitory activity IC50, L858R/T790M/C797S
Sequence (P00533 whole entry T790M/C797S/L858R): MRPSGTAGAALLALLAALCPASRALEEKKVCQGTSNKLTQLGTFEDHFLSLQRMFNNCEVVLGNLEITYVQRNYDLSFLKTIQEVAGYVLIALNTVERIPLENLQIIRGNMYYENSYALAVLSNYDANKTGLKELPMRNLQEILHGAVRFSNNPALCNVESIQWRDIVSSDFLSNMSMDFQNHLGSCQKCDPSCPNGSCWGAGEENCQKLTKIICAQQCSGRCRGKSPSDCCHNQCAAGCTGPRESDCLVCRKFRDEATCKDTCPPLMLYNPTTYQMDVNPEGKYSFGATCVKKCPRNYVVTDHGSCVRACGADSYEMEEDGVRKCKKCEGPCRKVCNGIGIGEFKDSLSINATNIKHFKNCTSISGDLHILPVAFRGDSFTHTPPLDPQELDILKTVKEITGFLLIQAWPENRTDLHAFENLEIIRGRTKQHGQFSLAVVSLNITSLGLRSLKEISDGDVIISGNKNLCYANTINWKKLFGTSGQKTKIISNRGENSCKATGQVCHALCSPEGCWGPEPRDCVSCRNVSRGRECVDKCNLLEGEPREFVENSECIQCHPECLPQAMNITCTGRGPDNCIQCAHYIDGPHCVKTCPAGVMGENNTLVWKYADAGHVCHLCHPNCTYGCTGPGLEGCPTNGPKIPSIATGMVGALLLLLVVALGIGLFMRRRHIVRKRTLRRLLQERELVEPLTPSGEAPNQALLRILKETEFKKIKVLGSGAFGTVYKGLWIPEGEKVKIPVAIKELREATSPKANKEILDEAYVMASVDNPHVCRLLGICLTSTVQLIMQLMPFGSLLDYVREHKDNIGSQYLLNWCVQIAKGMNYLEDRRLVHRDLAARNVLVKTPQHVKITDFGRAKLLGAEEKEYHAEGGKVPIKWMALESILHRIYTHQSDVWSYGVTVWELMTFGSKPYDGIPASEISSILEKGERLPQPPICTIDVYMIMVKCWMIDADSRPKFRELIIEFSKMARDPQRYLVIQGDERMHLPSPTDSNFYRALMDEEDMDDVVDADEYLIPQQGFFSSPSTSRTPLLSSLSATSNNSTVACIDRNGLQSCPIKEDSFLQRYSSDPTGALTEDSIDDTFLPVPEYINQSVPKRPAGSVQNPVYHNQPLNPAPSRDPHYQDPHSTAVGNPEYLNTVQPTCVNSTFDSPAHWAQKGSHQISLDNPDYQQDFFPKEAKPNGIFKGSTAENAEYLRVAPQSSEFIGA
OBSERVABLE: GI50

SMI	OBSERVABLE	RESULT VALUE
C=Cc1cnc(Nc2cc(C(C)C)c(N3CCC(N4CCN(C)CC4)CC3)cc2OC)nc1Nc1ccc2nccnc2c1S(=O)(=O)C(C)C	GI50	500 to 2500 nM
C=Cc1cnc(Nc2ccc(N3CCC(N4CCN(C)CC4)CC3)c(CC)c2)nc1Nc1ccc2nccnc2c1NS(C)(=O)=O	GI50	≤ 50 nM
C=Cc1cnc(Nc2cc(CC)c(N3CCC(N4CCN(C)CC4)CC3)cc2OC)nc1Nc1ccc2nccnc2c1NS(C)(=O)=O	GI50	50 to 500 nM
C=Cc1cnc(Nc2cc(CC3CC3)c(N3CCC(N4CCN(C)CC4)CC3)cc2OC)nc1Nc1ccc2nccnc2c1S(=O)(=O)NC	GI50	50 to 500 nM
C=Cc1cnc(Nc2cc(CC)c(N3CCC(N4CCNCC4)CC3)cc2OC)nc1Nc1ccc2nccnc2c1N(C)S(C)(=O)=O	GI50	≤ 50 nM
C=Cc1cnc(Nc2cc3c(cc2F)CCN(C)C3)nc1Nc1ccc2nccnc2c1P(C)(C)=O	GI50	50 to 500 nM
C=Cc1cnc(Nc2ccc(N3CCC(N4CCN(C)CC4)CC3)c(F)c2F)nc1Nc1ccc2nccnc2c1NS(C)(=O)=O	GI50	500 to 2500 nM
C=Cc1cnc(Nc2ccc(N3CCC(N4CCN(C)CC4)CC3)c(CC)c2)nc1Nc1ccc2nccnc2c1P(C)(C)=O	GI50	≤ 50 nM
C=Cc1cnc(Nc2cc(CC)c(N3CCC(N4CCN(C)CC4)CC3)cc2OC(F)(F)F)nc1Nc1ccc2nccnc2c1S(C)(=O)=O	GI50	500 to 2500 nM
C=Cc1cnc(Nc2cc(CC)c(N3CCC(N4CCN(C)CC4)CC3)nc2OC)nc1Nc1ccc2nccnc2c1S(=O)(=O)NC	GI50	50 to 500 nM
C=Cc1cnc(Nc2cc(CC)c(N3CCN(C)CC3)cc2OC)nc1Nc1ccc2nccnc2c1S(C)(=O)=O	GI50	500 to 2500 nM
C=Cc1cnc(Nc2cc(CC3CC3)c(N3CCC(N4CCN(C)CC4)CC3)cc2OC)nc1Nc1ccc2nccnc2c1N(C)S(C)(=O)=O	GI50	≤ 50 nM
C=Cc1cnc(Nc2cc(CC)c(NCCN(C)C)cc2OC)nc1Nc1ccc2nccnc2c1N(C)S(C)(=O)=O	GI50	50 to 500 nM
C=Cc1cnc(Nc2cc(CC)n(C)n2)nc1Nc1ccc2nccnc2c1N(C)S(C)(=O)=O	GI50	50 to 500 nM
C=Cc1cnc(Nc2cc(CC)c(N3CCC(N4CCN(C)CC4)CC3)cc2OC)nc1Nc1ccc2nccnc2c1P(C)(C)=O	GI50	≤ 50 nM

====

target: BaF3 cell lines stably transfected with kinase EGFR Del/T790M/C797S (Homo sapiens, UniProt P00533, T790M/C797S, cells depend on it, form not given); experiment: Growth inhibition of BaF3 cell line stably transfected with kinase EGFR Del/T790M/C797S (MTS); assay type: cell-based; settings: 48 h, read-out: growth inhibitory activity IC50, Del/T790M/C797S

COMPOUND	GI50
C=Cc1cnc(Nc2ccn(C(C)C)n2)nc1Nc1ccc2nccnc2c1N(C)S(C)(=O)=O	50 to 500 nM
C=Cc1cnc(Nc2cc(CC)c(N3CCC(N(C)C)CC3)cc2OC)nc1Nc1ccc2nccnc2c1S(C)(=O)=O	500 to 2500 nM
C=Cc1cnc(Nc2cc(CC)c(N3CCC(N4CCN(C)CC4)CC3)cc2OC)nc1Nc1ccc2nccnc2c1N(C)S(C)(=O)=O [II-1]	≤ 50 nM
C=Cc1cnc(Nc2cc(CC)c(N3CCC(N4CCN(C)CC4)CC3)nc2OC)nc1Nc1ccc2nccnc2c1P(C)(C)=O	≤ 50 nM
C=Cc1cnc(Nc2cc(CC)c(N3CCC(N4CCN(C)CC4)CC3)cc2OC)nc1Nc1ccc2nccnc2c1N(C)S(=O)(=O)CC	50 to 500 nM
C=Cc1cnc(Nc2cc(C(C)C)c(N3CCC(N4CCN(C)CC4)CC3)cc2OC)nc1Nc1ccc2nccnc2c1NS(C)(=O)=O	500 to 2500 nM
C=Cc1cnc(Nc2ccc(N3CCC(N4CCN(C)CC4)CC3)c(F)c2F)nc1Nc1ccc2nccnc2c1NS(C)(=O)=O	500 to 2500 nM
C=Cc1cnc(Nc2cc(CC)c(N3CCC(N(C)C)CC3)cc2OC)nc1Nc1ccc2nccnc2c1N(C)S(C)(=O)=O	≤ 50 nM
C=Cc1cnc(Nc2cc3c(cc2OC(F)(F)F)CCN(C)C3)nc1Nc1ccc2nccnc2c1N(C)S(C)(=O)=O	500 to 2500 nM
C=C(C)c1cnc(Nc2ccc(N3CCC(N4CCN(C)CC4)CC3)nc2OC)nc1Nc1ccc2nccnc2c1P(C)(C)=O	500 to 2500 nM
C=Cc1cnc(Nc2cc(CC)c(N3CCC(N(C)C)C3)cc2OC)nc1Nc1ccc2nccnc2c1S(C)(=O)=O (stereo not shown)	500 to 2500 nM
C=Cc1cnc(Nc2ccc(N3CCC(N4CCN(C)CC4)CC3)c(CC)c2)nc1Nc1ccc2nccnc2c1N(C)S(C)(=O)=O	≤ 50 nM
C=Cc1cnc(Nc2cc(CC)c(N3CCC(N4CCN(C)CC4)CC3)cc2OC)nc1Nc1ccc2nccnc2c1N(C)S(=O)(=O)C1CC1	50 to 500 nM
C=C(C)c1cnc(Nc2cc[nH]n2)nc1Nc1ccc2nccnc2c1N(C)S(C)(=O)=O	500 to 2500 nM
C=Cc1cnc(Nc2cc(CC)c(N3CCN(C)CC3)cc2OC)nc1Nc1ccc2nccnc2c1P(C)(C)=O	≤ 50 nM
C=Cc1cnc(Nc2ccc(N3CCC(N4CCN(C)CC4)CC3)c(CC)c2)nc1Nc1ccc2nccnc2c1S(C)(=O)=O	500 to 2500 nM
C=Cc1cnc(Nc2cc(CC)c(N3CCC(N4CCN(C)CC4)CC3)cc2OC)nc1Nc1ccc2nccnc2c1N(C1CC1)S(C)(=O)=O	50 to 500 nM
C=Cc1cnc(Nc2cc(CC)c(N3CCC(N4CCN(C)CC4)CC3)cc2OC(F)(F)F)nc1Nc1ccc2nccnc2c1N(C)S(C)(=O)=O	≤ 50 nM
C=Cc1cnc(Nc2cc(C3CC3)c(N3CCC(N4CCN(C)CC4)CC3)cc2OC)nc1Nc1ccc2nccnc2c1S(C)(=O)=O	500 to 2500 nM
C=Cc1cnc(Nc2cnn(C)c2)nc1Nc1ccc2nccnc2c1N(C)S(C)(=O)=O	50 to 500 nM
C=Cc1cnc(Nc2cc(CC)c(N3CCC(N(C)C)C3)cc2OC)nc1Nc1ccc2nccnc2c1NS(C)(=O)=O (stereo not shown)	≤ 50 nM
CCc1cc(Nc2ncc(C=C(C)C)c(Nc3ccc4nccnc4c3N(C)S(C)(=O)=O)n2)c(OC)cc1N1CCC(N2CCN(C)CC2)CC1	500 to 2500 nM
C=Cc1cnc(Nc2cc(CC)c(N3CCC(N4CCN(C)CC4)CC3)cc2OC(F)(F)F)nc1Nc1ccc2nccnc2c1S(C)(=O)=O	500 to 2500 nM
C=Cc1cnc(Nc2cc(CC)c(N3CCC(N(C)C)CC3)cc2OC)nc1Nc1ccc2nccnc2c1S(=O)(=O)NC	50 to 500 nM
C=Cc1cnc(Nc2cc3c(cc2F)CCN(C)C3)nc1Nc1ccc2nccnc2c1P(C)(C)=O	500 to 2500 nM
